- Measured On: EGFR Del19/C797S (Homo sapiens, UniProt P00533, C797S/DEL746-750)
- Sequence (P00533 with tags, fused parts or gaps DEL746-750/C797S): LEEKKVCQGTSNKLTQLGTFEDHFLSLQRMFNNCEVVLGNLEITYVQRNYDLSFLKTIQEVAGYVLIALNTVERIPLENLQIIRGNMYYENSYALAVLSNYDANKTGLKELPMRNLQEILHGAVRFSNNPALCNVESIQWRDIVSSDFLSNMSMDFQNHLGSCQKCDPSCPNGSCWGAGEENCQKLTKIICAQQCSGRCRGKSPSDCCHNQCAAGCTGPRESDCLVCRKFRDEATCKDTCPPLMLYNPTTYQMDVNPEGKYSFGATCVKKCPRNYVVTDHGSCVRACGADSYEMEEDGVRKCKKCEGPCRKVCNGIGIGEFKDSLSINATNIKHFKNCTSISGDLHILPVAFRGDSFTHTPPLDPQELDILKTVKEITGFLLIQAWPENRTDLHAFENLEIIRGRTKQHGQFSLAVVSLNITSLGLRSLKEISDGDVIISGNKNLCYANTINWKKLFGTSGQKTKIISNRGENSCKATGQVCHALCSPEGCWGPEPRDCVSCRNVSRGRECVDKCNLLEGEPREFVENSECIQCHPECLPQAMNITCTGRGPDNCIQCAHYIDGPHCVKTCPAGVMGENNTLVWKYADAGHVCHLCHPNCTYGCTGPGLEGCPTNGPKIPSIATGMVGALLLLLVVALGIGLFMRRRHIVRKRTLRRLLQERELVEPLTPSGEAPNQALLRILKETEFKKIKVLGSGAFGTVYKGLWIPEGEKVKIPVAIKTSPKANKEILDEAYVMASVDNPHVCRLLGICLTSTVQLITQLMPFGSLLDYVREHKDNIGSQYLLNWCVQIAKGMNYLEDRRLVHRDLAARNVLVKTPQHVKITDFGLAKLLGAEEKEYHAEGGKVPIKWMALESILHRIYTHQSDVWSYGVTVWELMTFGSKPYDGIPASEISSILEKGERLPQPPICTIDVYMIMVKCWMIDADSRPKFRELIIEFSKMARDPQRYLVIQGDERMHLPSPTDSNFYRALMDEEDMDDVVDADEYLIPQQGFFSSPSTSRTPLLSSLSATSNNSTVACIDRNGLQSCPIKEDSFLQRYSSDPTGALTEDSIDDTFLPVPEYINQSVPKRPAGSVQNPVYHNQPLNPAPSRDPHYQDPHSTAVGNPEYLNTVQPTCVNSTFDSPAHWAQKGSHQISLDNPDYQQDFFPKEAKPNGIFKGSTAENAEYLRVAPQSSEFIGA
- Procedure Text: Biochemical EGFR kinase inhibition assay (Lance Ultra TR-FRET), double mutant del19/C797S
- Test Context: IC50 Del19/C797S (nM), 100 μM ATP
Readout Kind: IC50 (nM)

{"columns": ["Compound", "Measurement Units", "Quantitative Readout"],
 "data": [
  ["CC1(CO)CCN(c2cc(Nc3ccnc(-c4cnn(S(=O)(=O)C5CC5)c4)n3)ncc2C#Cc2ccccc2)CC1", "nM", 7.6],
  ["O=S(=O)(C1CC1)N1CCC(C#Cc2cnc(Nc3ccnc(-c4cnn(S(=O)(=O)C5CC5)c4)n3)cc2NC[C@H]2CC[C@H](CO)CC2)CC1", "nM", 212],
  ["Nc1cccc(C#Cc2cnc(Nc3ccnc(-c4cnn(S(=O)(=O)C5CC5)c4)n3)cc2N[C@@H]2CCC[C@H](O)C2)c1", "nM", 10.5],
  ["CN(C)CCn1cc(C#Cc2cnc(Nc3ccnc(-c4cnn(S(=O)(=O)C5CC5)c4)n3)cc2N2CCCC(CO)C2)cn1 (stereo not shown)", "nM", 0.8],
  ["CC(C)(O)[C@H]1CC[C@@H](Nc2cc(Nc3ccnc(-c4cnn(S(=O)(=O)C5CC5)c4)n3)ncc2C#Cc2cnn(CC(F)F)c2)CC1", "nM", 6.9],
  ["CC1(CO)CCN(c2cc(Nc3ccnc(-c4cnn(S(=O)(=O)C5CC5)c4)n3)ncc2C#Cc2ccccn2)CC1", "nM", 1.2],
  ["CC1(CO)CCN(c2cc(Nc3ccnc(-c4cnn(S(=O)(=O)C5CC5)c4)n3)ncc2C#CC2(O)CCOCC2)CC1", "nM", 2.7],
  ["CC1(CO)CCN(c2cc(Nc3ccnc(-c4cnn(S(=O)(=O)C5CC5)c4)n3)ncc2C#Cc2cnn(CC3CCOC3)c2)CC1 (stereo not shown)", "nM", 0.7],
  ["CC1(CO)CCN(c2cc(Nc3ccnc(-c4cnn(S(=O)(=O)C5CC5)c4)n3)ncc2C#CCN2CCS(=O)(=O)CC2)CC1", "nM", 3],
  ["CN(C)CCn1cc(C#Cc2cnc(Nc3ccnc(-c4cnn(S(=O)(=O)C5CC5)c4)n3)cc2N2CCC(F)(CO)CC2)cn1", "nM", 0.7],
  ["C[C@H](CCO)Nc1cc(Nc2ccnc(-c3cnn(S(=O)(=O)C4CC4)c3)n2)ncc1C#Cc1cnn(C)c1", "nM", 38.6],
  ["CN(C)CCC1CCN(c2cc(Nc3ccnc(-c4cnn(S(=O)(=O)C5CC5)c4)n3)ncc2C#CC2CCN(C(=O)C(F)(F)F)C2)CC1 (stereo not shown)", "nM", 0.8],
  ["Cn1cc(C#Cc2cnc(Nc3ccnc(-c4cnn(S(=O)(=O)C5CC5)c4)n3)cc2N2CCC3(CCNC3)CC2)cn1", "nM", 0.4]
]}

---

- Measured On: EGFR Del19/C797S (Homo sapiens, UniProt P00533, C797S/DEL746-750)
- Procedure Text: Biochemical EGFR kinase inhibition assay (Lance Ultra TR-FRET), double mutant del19/C797S
- Test Context: Km ATP; read-out: IC50 Del19/C797S (nM) Km ATP

{"columns": ["Molecule", "Measured On", "IC50 / nM"],
 "data": [
  ["CN(C)CCn1cc(C#Cc2cnc(Nc3ccnc(-c4cnn(S(=O)(=O)C5CC5)c4)n3)cc2N2CCC(C)(CO)CC2)cn1", "EGFR Del19/C797S (Homo sapiens, UniProt P00533, C797S/DEL746-750)", 0.3],
  ["CC1(CO)CCN(c2cc(Nc3ccnc(-c4cnn(S(=O)(=O)C5CC5)c4)n3)ncc2C#Cc2cnn(C3CCOCC3)c2)CC1", "EGFR Del19/C797S (Homo sapiens, UniProt P00533, C797S/DEL746-750)", 2.7],
  ["O=S(=O)(C1CC1)n1cc(-c2nccc(Nc3cc(N4CCC(NCCO)CC4)c(C#Cc4cnn(C5CCOCC5)c4)cn3)n2)cn1", "EGFR Del19/C797S (Homo sapiens, UniProt P00533, C797S/DEL746-750)", 8.8],
  ["CN(C)Cc1ccc(CNc2cc(Nc3ccnc(-c4cnn(S(=O)(=O)C5CC5)c4)n3)ncc2C#Cc2cnn(C)c2)cc1", "EGFR Del19/C797S (Homo sapiens, UniProt P00533, C797S/DEL746-750)", 128],
  ["CCS(=O)(=O)N1CCN(c2cc(Nc3ccnc(-c4cnn(S(=O)(=O)C5CC5)c4)n3)ncc2C#Cc2cnn(C)c2)CC1", "EGFR Del19/C797S (Homo sapiens, UniProt P00533, C797S/DEL746-750)", 240],
  ["O=S(=O)(C1CC1)n1cc(-c2nccc(Nc3cc(N4CCC(F)(CO)CC4)c(C#Cc4cnn(C5CCOCC5)c4)cn3)n2)cn1", "EGFR Del19/C797S (Homo sapiens, UniProt P00533, C797S/DEL746-750)", 3],
  ["Cn1cc(C#Cc2cnc(Nc3ccnc(-c4cnn(S(=O)(=O)C5CC5)c4)n3)cc2N2CCC3(CCNC3=O)CC2)cn1", "EGFR Del19/C797S (Homo sapiens, UniProt P00533, C797S/DEL746-750)", 1.3],
  ["CC(=O)N1CCC(n2cc(C#Cc3cnc(Nc4ccnc(-c5cnn(S(=O)(=O)C6CC6)c5)n4)cc3N3CCC(NCCN(C)C)CC3)cn2)CC1", "EGFR Del19/C797S (Homo sapiens, UniProt P00533, C797S/DEL746-750)", 0.9],
  ["CC(=O)N1CCC(n2cc(C#Cc3cnc(Nc4ccnc(-c5cnn(S(=O)(=O)C6CC6)c5)n4)cc3N3CCCC(CO)C3)cn2)CC1 (centres unmarked)", "EGFR Del19/C797S (Homo sapiens, UniProt P00533, C797S/DEL746-750)", 5.4],
  ["CN(C)CCNC1CCN(c2cc(Nc3ccnc(-c4cnn(S(=O)(=O)C5CC5)c4)n3)ncc2C#Cc2cnn(C(F)(F)F)c2)CC1", "EGFR Del19/C797S (Homo sapiens, UniProt P00533, C797S/DEL746-750)", 1.2],
  ["CC(C)Nc1cc(Nc2ccnc(-c3cnn(S(=O)(=O)C4CC4)c3)n2)ncc1C#Cc1cnn(CCF)c1", "EGFR Del19/C797S (Homo sapiens, UniProt P00533, C797S/DEL746-750)", 23.1],
  ["CCC(C)Oc1cc(Nc2ccnc(-c3cnn(S(=O)(=O)C4CC4)c3)n2)ncc1C#Cc1cnn(C(C)C)c1 (centres unmarked)", "EGFR Del19/C797S (Homo sapiens, UniProt P00533, C797S/DEL746-750)", 493],
  ["C[C@]1(O)CC[C@@H](Nc2cc(Nc3ccnc(-c4cnn(S(=O)(=O)C5CC5)c4)n3)ncc2C#Cc2cnn(C(F)(F)F)c2)CC1", "EGFR Del19/C797S (Homo sapiens, UniProt P00533, C797S/DEL746-750)", 48.7],
  ["Cn1cc(C#Cc2cnc(Nc3ccnc(-c4cnn(S(=O)(=O)C5CC5)c4)n3)cc2N2CCC(O)CC2)cn1", "EGFR Del19/C797S (Homo sapiens, UniProt P00533, C797S/DEL746-750)", 4],
  ["O=S(=O)(C1CC1)n1cc(-c2nccc(Nc3cc(N4CCCC(CO)C4)c(C#Cc4cnn(C5CCOCC5)c4)cn3)n2)cn1 (centres unmarked)", "EGFR Del19/C797S (Homo sapiens, UniProt P00533, C797S/DEL746-750)", 10.7],
  ["CN(C)C[C@H]1CC[C@H](COc2cc(Nc3ccnc(-c4cnn(S(=O)(=O)C5CC5)c4)n3)ncc2C#Cc2cnn(CCF)c2)CC1", "EGFR Del19/C797S (Homo sapiens, UniProt P00533, C797S/DEL746-750)", 0.5],
  ["CN(C)C[C@H]1CC[C@H](COc2cc(Nc3ccnc(-c4cnn(S(=O)(=O)C5CC5)c4)n3)ncc2C#Cc2cccnc2)CC1", "EGFR Del19/C797S (Homo sapiens, UniProt P00533, C797S/DEL746-750)", 0.4],
  ["CC(C)n1cc(C#Cc2cnc(Nc3ccnc(-c4cnn(S(=O)(=O)C5CC5)c4)n3)cc2-c2cnn(C3CC3)c2)cn1", "EGFR Del19/C797S (Homo sapiens, UniProt P00533, C797S/DEL746-750)", 359],
  ["CNCC1(C)CCN(c2cc(Nc3ccnc(-c4cnn(S(=O)(=O)C5CC5)c4)n3)ncc2C#Cc2cnn(C)c2)CC1", "EGFR Del19/C797S (Homo sapiens, UniProt P00533, C797S/DEL746-750)", 0.2],
  ["CN(C)C[C@H]1CC[C@H](CNc2cc(Nc3ccnc(-c4cnn(S(=O)(=O)C5CC5)c4)n3)ncc2C#Cc2cnn(C)c2)CC1", "EGFR Del19/C797S (Homo sapiens, UniProt P00533, C797S/DEL746-750)", 5.9],
  ["CCC(C)Nc1cc(Nc2ccnc(-c3cnn(S(=O)(=O)C4CC4)c3)n2)ncc1C#Cc1cnn(C(C)C)c1 (centres unmarked)", "EGFR Del19/C797S (Homo sapiens, UniProt P00533, C797S/DEL746-750)", 105],
  ["CC(C)n1cc(C#Cc2cnc(Nc3ccnc(-c4cnn(S(=O)(=O)C5CC5)c4)n3)cc2OC[C@H]2CC[C@H](CN(C)C)CC2)cn1", "EGFR Del19/C797S (Homo sapiens, UniProt P00533, C797S/DEL746-750)", 1.1],
  ["CN1CC(n2cc(C#Cc3cnc(Nc4ccnc(-c5cnn(S(=O)(=O)C6CC6)c5)n4)cc3N3CCC(C)(CO)CC3)cn2)C1", "EGFR Del19/C797S (Homo sapiens, UniProt P00533, C797S/DEL746-750)", 0.2],
  ["Cn1cc(C#Cc2cnc(Nc3ccnc(-c4cnn(S(=O)(=O)C5CC5)c4)n3)cc2N[C@H]2CCC[C@H](O)C2)cn1", "EGFR Del19/C797S (Homo sapiens, UniProt P00533, C797S/DEL746-750)", 1.4],
  ["Cn1cc(C#Cc2cnc(Nc3ccnc(-c4cnn(S(=O)(=O)C5CC5)c4)n3)cc2N2CCCC(CO)C2)cn1 (centres unmarked)", "EGFR Del19/C797S (Homo sapiens, UniProt P00533, C797S/DEL746-750)", 2.8],
  ["O=S(=O)(C1CC1)n1cc(-c2nccc(Nc3cc(NC4CCC(O)CC4)c(C#Cc4cnn(C5CC5(F)F)c4)cn3)n2)cn1 (centres unmarked)", "EGFR Del19/C797S (Homo sapiens, UniProt P00533, C797S/DEL746-750)", 3.5]
]}
